# credit: paper PMC3561128

Kindly supply the reported Percentage of ID, spleen + pancreas values for the records listed here.
Assay: Biodistribution studies in NMRI mice
Format: in vivo
Conditions: i.v., 2 min p.i.
Procedure: The biodistribution studies were performed in wild-type NMRI mice with body weights ranging from 30 to 40 g. Mice were intravenously injected with 0.1 MBq of ^18F]-(3) or ^18F]-(5) and 5.5 MBq of ^11C]-(4) or ^11C]-(6) under anesthesia (2% isoflurane in O2 at a flow rate of 1 L/min). The animals were killed by decapitation at 2 min or 60 min p.i. (n = 4/time point for ^18F]-(3), ^11C]-(4), and ^11C]-(6); n = 6 for ^18F]-(5)). […]
Answer in % ID, number only, no unit symbol.

Query Percentage of ID, spleen + pancreas for [11CH3]Oc1ccc(S(N)(=O)=O)cc1 [[^11C]-(6), 4-[^11C]methoxybenzene sulfonamide]
1.2

State its Percentage of ID, spleen + pancreas for this compound: NS(=O)(=O)c1ccc(OCC[18F])cc1 [[^18F]-(5)]
1.1

Please list Percentage of ID, spleen + pancreas recorded for the compound NS(=O)(=O)c1ccc(CCNC(=O)c2ccc(OCC[18F])cc2)cc1 [[^18F]-(3)]
1.3

Using the record for [11CH3]Oc1ccc(C(=O)NCCc2ccc(S(N)(=O)=O)cc2)cc1 [[^11C]-(4)] , state its measured Percentage of ID, spleen + pancreas.
0.6

* * *

Assay: Biodistribution studies in NMRI mice
Assay type: in vivo
Conditions: i.v., 60 min p.i.
Answer each item with its documented SUV, blood.
Note: the reply should be a number with no unit written.

Report SUV, blood, nothing else, for this molecule: NS(=O)(=O)c1ccc(CCNC(=O)c2ccc(OCC[18F])cc2)cc1 [[^18F]-(3)]
4.5

Check the records and state SUV, blood for [11CH3]Oc1ccc(C(=O)NCCc2ccc(S(N)(=O)=O)cc2)cc1 [[^11C]-(4)]
10.4

Please list SUV, blood recorded for the molecule NS(=O)(=O)c1ccc(OCC[18F])cc1 [[^18F]-(5)]
11.1

Identify SUV, blood associated with the molecule [11CH3]Oc1ccc(S(N)(=O)=O)cc1 [[^11C]-(6), 4-[^11C]methoxybenzene sulfonamide]
7.1

* * *

Test: Biodistribution studies in NMRI mice
Format: in vivo
Details: i.v., 60 min p.i.
What SUV, spleen was measured for each of the following?
Give a plain numeric answer without units written out.

Consider the compound [11CH3]Oc1ccc(S(N)(=O)=O)cc1 [[^11C]-(6), 4-[^11C]methoxybenzene sulfonamide] and give its recorded SUV, spleen.
2.4

In one line, give reported SUV, spleen of the entry NS(=O)(=O)c1ccc(CCNC(=O)c2ccc(OCC[18F])cc2)cc1 [[^18F]-(3)] .
1.1

Please give the documented SUV, spleen of NS(=O)(=O)c1ccc(OCC[18F])cc1 [[^18F]-(5)]
2.2

Output SUV, spleen of [11CH3]Oc1ccc(C(=O)NCCc2ccc(S(N)(=O)=O)cc2)cc1 [[^11C]-(4)]
1.1

* * *

value kind: Ki

Write down the reported Ki (system: UniProt P00915) of NS(=O)(=O)c1ccc(CCNC(=O)c2ccc(OCCF)cc2)cc1
Sequence (P00915 whole entry): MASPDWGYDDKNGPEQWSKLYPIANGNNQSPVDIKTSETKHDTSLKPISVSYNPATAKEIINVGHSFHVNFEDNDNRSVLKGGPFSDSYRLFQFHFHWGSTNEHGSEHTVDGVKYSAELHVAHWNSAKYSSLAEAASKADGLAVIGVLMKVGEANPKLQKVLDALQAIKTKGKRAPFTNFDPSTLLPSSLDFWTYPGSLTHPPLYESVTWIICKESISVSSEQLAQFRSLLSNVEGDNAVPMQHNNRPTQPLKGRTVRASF
96 nM

Please report the measured Ki for COc1ccc(C(=O)NCCc2ccc(S(N)(=O)=O)cc2)cc1 tested on UniProt P00915.
390 nM
